Measured values drawn from paper PMC4336329 for this set.

Target: human ether-à-go-go-related gene (hERG) potassium channel (human, UniProt Q12809);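 further: peak tail current of the secondary pulse compared with the same well before compound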
Sequence (Q12809 whole entry, looked up): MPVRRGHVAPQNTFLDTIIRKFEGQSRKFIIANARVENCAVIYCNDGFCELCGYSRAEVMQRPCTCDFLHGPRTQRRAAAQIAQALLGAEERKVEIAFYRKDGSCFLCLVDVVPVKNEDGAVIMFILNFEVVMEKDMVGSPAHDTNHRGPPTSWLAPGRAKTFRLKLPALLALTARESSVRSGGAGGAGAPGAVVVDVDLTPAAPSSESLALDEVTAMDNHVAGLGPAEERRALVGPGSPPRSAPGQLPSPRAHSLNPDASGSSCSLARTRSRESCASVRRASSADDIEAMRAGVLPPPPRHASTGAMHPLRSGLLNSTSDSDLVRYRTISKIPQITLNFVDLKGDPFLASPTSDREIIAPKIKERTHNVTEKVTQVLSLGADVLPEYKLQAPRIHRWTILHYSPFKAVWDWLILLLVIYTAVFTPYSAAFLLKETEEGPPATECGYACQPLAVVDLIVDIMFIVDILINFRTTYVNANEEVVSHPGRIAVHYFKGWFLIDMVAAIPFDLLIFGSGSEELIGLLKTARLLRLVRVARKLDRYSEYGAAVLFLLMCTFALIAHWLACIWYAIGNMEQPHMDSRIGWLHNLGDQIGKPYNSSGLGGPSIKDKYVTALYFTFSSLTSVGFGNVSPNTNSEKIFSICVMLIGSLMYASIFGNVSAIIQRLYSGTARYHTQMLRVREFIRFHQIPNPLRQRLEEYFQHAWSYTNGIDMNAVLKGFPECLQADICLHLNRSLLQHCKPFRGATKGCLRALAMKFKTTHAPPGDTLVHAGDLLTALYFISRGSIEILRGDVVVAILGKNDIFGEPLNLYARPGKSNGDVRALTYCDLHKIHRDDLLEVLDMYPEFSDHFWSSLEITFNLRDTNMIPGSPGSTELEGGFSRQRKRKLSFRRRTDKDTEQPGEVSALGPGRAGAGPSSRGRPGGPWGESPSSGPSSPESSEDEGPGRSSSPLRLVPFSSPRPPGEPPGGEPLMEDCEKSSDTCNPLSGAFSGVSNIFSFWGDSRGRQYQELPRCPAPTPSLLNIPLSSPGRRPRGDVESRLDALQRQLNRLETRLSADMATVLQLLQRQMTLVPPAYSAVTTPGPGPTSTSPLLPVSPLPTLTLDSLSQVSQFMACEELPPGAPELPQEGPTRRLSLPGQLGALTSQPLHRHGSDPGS
Assay: primary screen, population patch clamp on CHO cells stably expressing hERG; higher = less effect of the substance
In all, about 310,000 compounds went through this assay and about 14,000 (4.5%) showed an effect of 50% or more. The effect is printed as a negative number. The sample as a whole holds a higher share of strong results than the screen did.
# binarize hERG current change (%, negative = inhibition) at 10uM: threshold -10% inclusive, high side 1, low side -1

Prompt: Kindly determine if hERG current change (%, negative = inhibition) at 10uM recorded for CC(=O)c1cnc(N(C)C)s1 is above or exactly -10%.
Completion: 1

Prompt: And Cc1cc(C)n(-c2ccc(C(=O)Nc3cccc([N+](=O)[O-])c3)cc2)n1 ?
Completion: 1

Prompt: Please answer likewise for O=C(Nc1ccccc1)/C(=C/c1ccc(F)cc1)NC(=O)c1ccco1
Completion: 1

Prompt: Field entry: O=C1CCN(Cc2ccc(Cl)cc2)N1
Completion: 1

Prompt: // next record COc1cccc(CN(C)CC(=O)NNC(=O)c2ccc(Cl)cc2)c1
Completion: -1

Prompt: Repeat with CC1CCCN(C(=O)CSc2nnc3n(C4CCCC4)c(=O)c4ccccc4n23)C1 (stereo not shown)
Completion: -1

Prompt: Proceed to O=C(CSc1nnc2n(C3CCCC3)c(=O)c3ccccc3n12)N1CCCCCC1
Completion: -1

Prompt: Again, but for N#CC1=C(c2ccc(-c3ccccc3)cc2)COC1=O
Completion: -1

Prompt: Same for CCCC(C)NC(=O)COC(=O)c1ccc2c(c1)C(=O)N(Cc1ccco1)C2=O (stereo not shown)
Completion: 1

---

Target: human ether-à-go-go-related gene (hERG) potassium channel (human);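 further: peak tail current of the secondary pulse compared with the same well before compound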
Assay: primary screen, population patch clamp on CHO cells stably expressing hERG; higher = less effect of the substance
Among all 310,000 compounds or so, about 14,000 (4.5%) showed an effect of 50% or more. Effects have a minus sign here. This is one part of a sample in which strong results are shown more often than they occur.
Please provide measured hERG current change (%, negative = inhibition) at 10uM for the entries that follow.
Please reply with the bare figure in % and do not write the unit itself.

Prompt: For N#Cc1nc(Cc2ccccc2)oc1N1CCC(Cc2ccccc2)CC1 , what is its reported hERG current change (%, negative = inhibition) at 10uM?
Completion: 24.5

Prompt: Item: O=C1C2C3C=CC(C4CC34)C2C(=O)N1CCc1ccccc1 (centres unmarked)
Completion: 3.23

Prompt: Please give the result for Fc1ccc(N2CCN(C3=Nc4cccc5cccc3c45)CC2)cc1 too.
Completion: -77

Prompt: Also check c1ccc(CC2CCN(c3nnnn3-c3ccccc3)CC2)cc1
Completion: -13.1

Prompt: Proceed to Cl.O=C1C2C3C=CC(C4CC34)C2C(=O)N1CCCCN1CCN(c2ccc(F)cc2)CC1 (centres unmarked)
Completion: -69.3

---

Molecular target: human ether-à-go-go-related gene (hERG) potassium channel (human);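 further: peak tail current of the secondary pulse compared with the same well before compound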
Experiment: primary screen, population patch clamp on CHO cells stably expressing hERG; higher = less effect of the substance
Hit rate of the full screen: of about 310,000 compounds, about 14,000 (4.5%) showed an effect of 50% or more. Effects have a minus sign here. The entries come from a sample that favours strong results as a whole.
Recorded endpoint: hERG current change (%, negative = inhibition) at 10uM (%)
Report as a plain number; the unit % is understood.

Prompt: Request the reported hERG current change (%, negative = inhibition) at 10uM associated with C#Cc1ccc(CN2CCC(N3CCC(C(=O)NCc4ccccn4)CC3)CC2)cc1
Completion: -72.2

Prompt: Moving on to the next molecule: Cc1ccc(NC(=O)CN(C)C(=O)Cc2ccc(Cl)c(Cl)c2)cc1
Completion: 11.8

Prompt: Also, CC(=O)N1CCC(N(C(=O)Nc2ccc(C)c(C)c2)C2CCCC2)CC1 please.
Completion: -31.2

Prompt: Entry O=C(Nc1ccc(Oc2ccccc2)nc1)C1CCN(Cc2ccccc2)CC1 please
Completion: -54.9

Prompt: Now consider OCC[C@@H]1C[C@@H](O)[C@H](O)[C@@]2(Cc3ccccc3CCO2)O1 and answer again.
Completion: 11

Prompt: Next molecule: CCc1nnc(NC(=O)CSc2nnc(-c3cccnc3)n2CCc2ccccc2)s1
Completion: -2.07

Prompt: Further, for Cc1ccc(OCCNC(=O)CNC(=O)c2ccccc2Cl)cc1 ?
Completion: -3.58

Prompt: Same question, CN(CC(N)=O)S(=O)(=O)c1ccc(F)cc1 this time
Completion: -15.7

Prompt: Next molecule: CSCC(C)N1CCC(N2CCC(C(=O)NCc3ccccn3)CC2)CC1 (stereo not shown)
Completion: -9.59

Prompt: Same thing, different molecule: COCCC(=O)N1CCC(C(=O)Nc2ccc(Oc3ccccc3)nc2)CC1
Completion: 17.6
